Give IC50 for every item shown.
Biological target: FGFR4 (GST-FGFR4(388-802)) (Homo sapiens (Human))
Sequence (P22455 388-802): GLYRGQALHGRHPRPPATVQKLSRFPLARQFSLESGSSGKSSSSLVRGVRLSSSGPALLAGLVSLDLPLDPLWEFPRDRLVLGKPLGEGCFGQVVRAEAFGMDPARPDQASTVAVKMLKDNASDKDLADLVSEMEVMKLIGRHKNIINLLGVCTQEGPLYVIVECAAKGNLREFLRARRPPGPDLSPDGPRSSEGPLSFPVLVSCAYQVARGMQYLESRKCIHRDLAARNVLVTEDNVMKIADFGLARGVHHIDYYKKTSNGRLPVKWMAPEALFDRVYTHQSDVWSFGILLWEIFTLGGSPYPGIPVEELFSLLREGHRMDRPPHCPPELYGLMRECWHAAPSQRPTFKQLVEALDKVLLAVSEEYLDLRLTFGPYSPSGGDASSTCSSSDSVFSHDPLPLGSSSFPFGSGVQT
Experiment: In-vitro biochemical kinase assay for FGFR4 (Caliper microfluidic mobility shift)
Conditions: read-out: Biochemical FGFR4 IC50
Structures can show the parent of a compound that is named as a salt.
Report the figure in nM without appending any unit label.

QUERY: Query (compound): N#Cc1cnc(NC(=O)N2CCCc3ccc(C=O)nc32)cc1Cl ; field requested: IC50
RESULT: 24

QUERY: Query (compound): CC(C)S(=O)(=O)c1ccccc1Nc1nc(NC(=O)N2CCCc3ccc(C=O)nc32)ncc1Cl ; field requested: IC50
RESULT: 0.2

QUERY: Query (compound): N#Cc1cnc(NC(=O)N2CCCc3cc(CO)c(C=O)nc32)cc1OCC1CCCO1 (racemic) ; field requested: IC50
RESULT: 5.2

QUERY: Query (compound): Cc1cnc(NC(=O)N2CCCc3ccc(C=O)nc32)cc1C ; field requested: IC50
RESULT: 110

QUERY: Query (compound): CC(=O)N1CCN(Cc2cc3c(nc2C=O)N(C(=O)Nc2cc(OC(C)C)c(C#N)cn2)CCC3)CC1 ; field requested: IC50
RESULT: 1.9

QUERY: Query (compound): COCCNc1cc(NC(=O)N2CCCc3cc(-n4cnc(C)n4)c(C=O)nc32)ncc1C#N ; field requested: IC50
RESULT: 14

QUERY: Query (compound): CN1CCN(Cc2cc3c(nc2C=O)N(C(=O)Nc2cc(NCCO)c(C#N)cn2)CCC3)C(=O)C1 ; field requested: IC50
RESULT: 1.2

QUERY: Query (compound): CC(=O)N(C)Cc1cc2c(nc1C=O)N(C(=O)Nc1cc(NCCOC(F)(F)F)c(C#N)cn1)CCC2 ; field requested: IC50
RESULT: 0.4

QUERY: Query (compound): CC(C)(O)CNc1cc(NC(=O)N2CCCc3cc(CO)c(C=O)nc32)ncc1C#N ; field requested: IC50
RESULT: 4.9

QUERY: Query (compound): COCCNc1cc(NC(=O)N2CCCc3cc(CN4CCNCC4=O)c(C=O)nc32)ncc1C#N [Example 110, hydrochloride] ; field requested: IC50
RESULT: 1.4

QUERY: Query (compound): COCCNc1cc(NC(=O)N2c3nc(C=O)c(CN4CCN(C)CC4=O)cc3CC[C@@H]2C)ncc1C#N ; field requested: IC50
RESULT: 0.6

QUERY: Query (compound): O=Cc1nc2c(cc1F)CCCN2C(=O)Nc1ccc(C(F)(F)F)cn1 ; field requested: IC50
RESULT: 45

QUERY: Query (compound): N#Cc1cnc(NC(=O)N2CCCc3cc(CO)c(C=O)nc32)cc1N[C@@H]1[C@H]2CC[C@H](C2)[C@@H]1CO (racemic) ; field requested: IC50
RESULT: 0.8

QUERY: Query (compound): O=Cc1nc2c(cc1CO)CCCN2C(=O)Nc1cc(O[C@H]2CCOC2)c(Cl)cn1 ; field requested: IC50
RESULT: 21

QUERY: Query (compound): N#Cc1cnc(NC(=O)N2CCCc3cc(CO)c(C=O)nc32)cc1OCC(F)(F)F ; field requested: IC50
RESULT: 8.9

QUERY: Query (compound): COCCNc1cc(NC(=O)N2CCCc3cc(CN4CC[C@H](O)C4=O)c(C=O)nc32)ncc1C#N ; field requested: IC50
RESULT: 0.9
